B1: APBB1IP (parent)
chain: PPEPLSQVSMWDQRWQDHQPLLPI

Variants of: B1
Experiment: protein stability index of a GFP-peptide fusion (GPS, HEK-293T) (PSI 1-6); higher = more stable;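 note: lentivirally expressed fusions sorted by FACS into six bins by GFP to DsRed ratio, PSI derived from sequencing read proportions per bin multiplied by bin number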
Conditions: c terminus: a fixed tail appended
measured-attribute: protein stability index
When you answer, write just the number.

Data request: protein stability index lookup needed for "Q19T" , thanks.
Data returned: 3.02

Data request: protein stability index lookup needed for "S6N" , thanks.
Data returned: 2.93

Data request: protein stability index lookup needed for "S9T" , thanks.
Data returned: 2.99

Data request: protein stability index lookup needed for "E3G" , thanks.
Data returned: 3.06

Data request: protein stability index lookup needed for "Q16K" , thanks.
Data returned: 3.06

Data request: protein stability index lookup needed for "Q19R" , thanks.
Data returned: 3
